Assay: in vivo
Settings: male, ICR, mouse, in vivo, ip, 10 mg/kg
Recorded endpoint: CL/F
Param answer (str): number followed by unit.

Entry O=C(/C=C/C=C/c1ccc2c(c1)OCO2)N1CCCCC1 : reported CL/F = ?
16.7 mL/min/kg

====

Test: in vivo
Details: male, ICR, mouse, in vivo, ip, 10 mg/kg
Recorded endpoint: Cmax (ng/mL)
Number in ng/mL, nothing else.

Entry O=C(/C=C/C=C/c1ccc2c(c1)OCO2)N1CCCCC1 [Piperine] : reported Cmax = ?
5050

====

# half-life annotations
Assay: in vivo
Settings: male, ICR, mouse, in vivo, ip, 5 mg/kg
Number in min, nothing else.

- COc1cc(CNC(=O)CCCC/C=C/C(C)C)ccc1O: 19.8

Then there is this compound:
Entry CCCCC[C@H](O)CC(=O)CCc1ccc(O)c(OC)c1 [[6]-Gingerol] : reported half-life = ?
81.6
